Experiment: Plasma PK of Example B, oral bioavailability and clearance in male Balb/c mice
Type: in vivo, mouse
Details: plasma; PO 10 mg/kg vs IV 3 mg/kg; male Balb/c mouse; Mesylate Salt
MEASUREMENT_LABEL: bioavailability
Could you give the number and then its unit, please?

What the record says about [O-][S+]1CCN(Cc2cnc3oc4c(N5CCOCC5)nc(-c5cccc6[nH]ccc56)nc4c3c2)CC1 : bioavailability is 82%

---

Endpoint: Ki. System: UniProtKB P42336. Items follow.
Sequence (P42336 whole entry): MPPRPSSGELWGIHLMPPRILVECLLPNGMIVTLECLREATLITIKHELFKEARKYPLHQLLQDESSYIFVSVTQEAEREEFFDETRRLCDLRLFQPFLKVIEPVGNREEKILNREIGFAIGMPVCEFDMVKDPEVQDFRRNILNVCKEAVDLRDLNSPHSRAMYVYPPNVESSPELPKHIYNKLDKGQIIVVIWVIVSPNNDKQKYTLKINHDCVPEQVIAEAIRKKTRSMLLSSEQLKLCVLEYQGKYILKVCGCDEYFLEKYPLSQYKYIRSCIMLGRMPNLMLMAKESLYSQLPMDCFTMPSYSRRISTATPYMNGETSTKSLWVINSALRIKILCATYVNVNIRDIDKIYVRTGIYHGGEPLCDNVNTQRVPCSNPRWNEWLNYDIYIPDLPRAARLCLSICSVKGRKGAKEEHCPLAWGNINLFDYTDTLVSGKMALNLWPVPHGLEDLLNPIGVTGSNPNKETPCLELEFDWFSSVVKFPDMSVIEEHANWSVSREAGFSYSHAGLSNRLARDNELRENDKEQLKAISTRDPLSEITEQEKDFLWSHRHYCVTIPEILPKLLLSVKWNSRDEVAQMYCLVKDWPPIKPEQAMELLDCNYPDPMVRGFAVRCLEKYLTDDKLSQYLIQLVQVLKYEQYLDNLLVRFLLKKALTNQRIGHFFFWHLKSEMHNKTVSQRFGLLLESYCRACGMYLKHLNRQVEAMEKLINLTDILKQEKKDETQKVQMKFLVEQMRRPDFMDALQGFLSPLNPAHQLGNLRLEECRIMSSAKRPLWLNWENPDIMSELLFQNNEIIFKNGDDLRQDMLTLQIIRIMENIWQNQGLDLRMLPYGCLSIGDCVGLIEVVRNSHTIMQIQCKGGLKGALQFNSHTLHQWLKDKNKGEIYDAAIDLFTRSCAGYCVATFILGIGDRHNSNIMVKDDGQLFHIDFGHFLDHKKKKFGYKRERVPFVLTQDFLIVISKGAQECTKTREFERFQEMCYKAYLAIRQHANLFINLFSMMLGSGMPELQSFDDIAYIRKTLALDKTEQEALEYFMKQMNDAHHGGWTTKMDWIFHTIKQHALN
Sequence (P27986 whole entry partner): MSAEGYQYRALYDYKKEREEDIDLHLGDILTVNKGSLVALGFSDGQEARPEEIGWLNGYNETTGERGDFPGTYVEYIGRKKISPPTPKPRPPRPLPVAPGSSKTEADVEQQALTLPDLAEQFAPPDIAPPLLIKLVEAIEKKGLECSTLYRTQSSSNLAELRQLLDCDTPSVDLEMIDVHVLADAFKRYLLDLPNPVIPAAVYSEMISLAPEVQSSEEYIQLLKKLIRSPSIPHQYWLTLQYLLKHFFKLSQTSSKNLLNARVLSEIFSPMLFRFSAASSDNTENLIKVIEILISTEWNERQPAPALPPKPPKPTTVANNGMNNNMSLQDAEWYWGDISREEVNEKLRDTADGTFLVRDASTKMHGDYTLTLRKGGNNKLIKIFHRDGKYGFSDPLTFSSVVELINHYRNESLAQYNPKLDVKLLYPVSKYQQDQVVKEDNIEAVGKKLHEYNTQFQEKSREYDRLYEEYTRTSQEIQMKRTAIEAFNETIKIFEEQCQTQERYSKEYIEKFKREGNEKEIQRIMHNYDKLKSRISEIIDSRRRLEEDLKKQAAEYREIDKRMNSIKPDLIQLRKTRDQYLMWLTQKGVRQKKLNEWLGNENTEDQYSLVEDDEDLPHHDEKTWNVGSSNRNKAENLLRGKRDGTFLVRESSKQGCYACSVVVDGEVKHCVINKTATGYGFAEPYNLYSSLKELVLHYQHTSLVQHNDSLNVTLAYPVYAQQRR

• O=S1(=O)CCN(Cc2cnc3oc4c(N5CCOCC5)nc(-c5cccc6[nH]ccc56)nc4c3c2)CC1 = 1000 to 10000 nM
• [O-][S+]1CCN(Cc2cnc3oc4c(N5CCOCC5)nc(-c5cccc6[nH]ccc56)nc4c3c2)CC1 [Example AH] = 1000 to 10000 nM
• [O-][S+]1CCN(Cc2cnc3oc4c(N5CCOCC5)nc(-c5cc(C(F)(F)F)cc6[nH]ccc56)nc4c3c2)CC1 = > 10000 nM
• [O-][S+]1CCN(Cc2cnc3oc4c(N5CCOCC5)nc(-c5c(OC(F)(F)F)ccc6[nH]ccc56)nc4c3c2)CC1 = ≤ 500 nM
• [O-][S+]1CCN(Cc2cnc3oc4c(N5CCOCC5)nc(-c5cccc6[nH]ccc56)nc4c3c2)CC1 [Example B] = 500 to 1000 nM
• O=C1Cc2c(cccc2-c2nc(N3CCOCC3)c3oc4ncc(CN5CC[S+]([O-])CC5)cc4c3n2)N1 = > 10000 nM
• CN(CCS(C)(=O)=O)Cc1cnc2oc3c(N4CCOCC4)nc(-c4cccc5[nH]ccc45)nc3c2c1 = ≤ 500 nM
• [O-][S+]1CCN(Cc2cnc3oc4c(N5CCOCC5)nc(-c5c(Cl)ccc6[nH]ccc56)nc4c3c2)CC1 = 1000 to 10000 nM
• Cc1ccc2c(c1-c1nc(N3CCOCC3)c3oc4ncc(CN5CC[S+]([O-])CC5)cc4c3n1)CCN2 = > 10000 nM
• N=S1(=O)CCN(Cc2cnc3oc4c(N5CCOCC5)nc(-c5cccc6[nH]ccc56)nc4c3c2)CC1 = 500 to 1000 nM

Assay UniProtKB P42336, sample c1cc(-c2nc(N3CCOCC3)c3oc4ncc(CN5C[C@@H]6C[C@H]5CS6)cc4c3n2)c2cc[nH]c2c1 , Ki read: 1000 to 10000 nM

I looked up Cc1cc2c(-c3nc(N4CCOCC4)c4oc5ncc(CN6CC[S+]([O-])CC6)cc5c4n3)cccc2[nH]1 and its Ki for UniProtKB P42336 was 500 to 1000 nM

Kindly note: UniProtKB P42336, O=C(O)c1ccc2[nH]ccc2c1-c1nc(N2CCOCC2)c2oc3ncc(CN4CC[S+]([O-])CC4)cc3c2n1 , Ki value reported: > 10000 nM

Ki of N#Cc1ccc2[nH]ccc2c1-c1nc(N2CCOCC2)c2oc3ncc(CN4CC[S+]([O-])CC4)cc3c2n1 , assay on UniProtKB P42336, is ≤ 500 nM

---

Test: Plasma PK of compound K of WO 2011/021038 in male Balb/c mice
Type: in vivo, mouse
Settings: PO, 10 mg/kg; male Balb/c mouse plasma
MEASUREMENT_LABEL: AUC(0-inf) (ng·h/mL)
Numeric answer only, unit ng·h/mL assumed.

Lookup result for c1cc(-c2nc(N3CCOCC3)c3oc4ncc(CN5CCOCC5)cc4c3n2)c2cc[nH]c2c1 [compound K in WO 2011/021038] ; measured AUC(0-inf): 5140

Origin of the recorded values: patent US10442815B2
